// data source = patent US9856264B2

IC50 values for the compounds below.
- TESTED SYSTEM: ROCK kinase
- EXPERIMENT DESCRIPTION: In vitro ROCK kinase inhibition activity evaluation (33P-ATP filter-binding)
- REPORTED CONDITIONS: 1 nM ROCK kinase, 20 μM Long S6 Kinase substrate peptide, 2 h room temperature

COMPOUND: Cc1cncc2cccc(S(=O)(=O)N3CCC4NCCCC43)c12 (stereo not drawn)
IC50: < 100 nM

COMPOUND: COc1cncc2cccc(S(=O)(=O)N3C[C@H]4CNC[C@H]4C3)c12
IC50: 1000 to 5000 nM

COMPOUND: COc1cncc2cccc(S(=O)(=O)N3C[C@H]4CCCN[C@H]4C3)c12 (stereo in doubt)
IC50: 1000 to 5000 nM

COMPOUND: O=S(=O)(c1cccc2cncc(F)c12)N1CC[C@@H]2NCC[C@@H]21 (stereo in doubt)
IC50: 1000 to 5000 nM

COMPOUND: Cc1cncc2cccc(S(=O)(=O)N3CCC4NCCCC4C3)c12 (stereo not drawn)
IC50: 1000 to 5000 nM

COMPOUND: O=S(=O)(c1cccc2cnccc12)N1CCC2NCCCC2C1 (stereo not drawn)
IC50: 100 to 1000 nM
